tested on: 926638-142-R-J1-PDC complex spheroid viability; assay: Anticancer human tumor 926638-142-R-J1-PDC patient-derived endometrial carcinoma cell line growth inhibition [POLQ]; settings: second compound 0.1 µM; first compound 0.0316 µM; stronger effect = lower value
Consider the following compounds and their measured viability, T/C readings.
Give your result in % as a bare value.

Please review the following examples before continuing.
CCc1cc2c(N3CCc4c(cc(Cn5ccnc5)cc4-c4cn(C)nc4C(F)(F)F)C3=O)cc(C)nc2c(OC)n1 + Nc1ccc(C#CCN(C(=O)Cc2ncc(C(F)(F)F)cc2C(F)(F)F)c2ccc(F)cc2)nn1
90.7
COc1cccc2c1C(=O)c1c(O)c3c(c(O)c1C2=O)CC(O)(C(=O)CO)CC3OC1CC(N)C(O)C(C)O1 (stereo unspecified) + Nc1ccc(C#CCN(C(=O)Cc2ncc(C(F)(F)F)cc2C(F)(F)F)c2ccc(F)cc2)nn1
90.7
C=CCn1c(=O)c2cnc(Nc3ccc(N4CCN(C)CC4)cc3)nc2n1-c1cccc(C(C)(C)O)n1 + COC1C(OC(N)=O)C(O)C(Oc2ccc3c(O)c(NC(=O)c4ccc(O)c(CC=C(C)C)c4)c(=O)oc3c2C)OC1(C)C
90.7

Query: State its viability, T/C for this compound: C#Cc1c(F)ccc2cc(O)cc(-c3ncc4c(N5CC6CCC(C5)N6)nc(OCC56CCCN5CC(F)C6)nc4c3F)c12 (stereo unspecified) + COC1C(OC(N)=O)C(O)C(Oc2ccc3c(O)c(NC(=O)c4ccc(O)c(CC=C(C)C)c4)c(=O)oc3c2C)OC1(C)C
Response: 90.2

Query: Check the records and state viability, T/C for C=CCn1c(=O)c2cnc(Nc3ccc(N4CCN(C)CC4)cc3)nc2n1-c1cccc(C(C)(C)O)n1 + Cc1cccc(N(C)C(=O)C2C(O)CCN2c2nc(C)cc(C(F)(F)F)c2C#N)c1
Response: 88.7

Query: Entry O=C(c1cc(Cc2n[nH]c(=O)c3ccccc23)ccc1F)N1CCN(C(=O)C2CC2)CC1 + COC1C(OC(N)=O)C(O)C(Oc2ccc3c(O)c(NC(=O)c4ccc(O)c(CC=C(C)C)c4)c(=O)oc3c2C)OC1(C)C needs its viability, T/C filled in; supply it.
Response: 92.3

###

Tested on: 926638-142-R-J1-PDC complex spheroid viability
Test: Anticancer human tumor 926638-142-R-J1-PDC cell line growth inhibition [POLQ]; active = viability on the fitted dose curve at most 10% of control; inactive = the rest;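 note: spheroids exposed to drugs for one week before readout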
Conditions: second compound 3.16 µM; first compound 10 µM
Procedure: Multicellular complex tumor spheroid response to Polymerase (POL) inhibitors (novobiocin, ART-558, RP6685) in combination with a variety of drugs and investigational agents in selected tumor cell lines The POL inhibitors (novobiocin, ART-558, and RP6685) were evaluated both individually and in combination with standard of care and investigational anticancer small molecules within a complex spheroid model of solid tumors. . […]
Output constraint: value belongs to 1 = active, -1 = inactive

Some solved entries appear below for comparison.
COc1cccc2c1C(=O)c1c(O)c3c(c(O)c1C2=O)CC(O)(C(=O)CO)CC3OC1CC(N)C(O)C(C)O1 (configuration not stated) + Cc1cccc(N(C)C(=O)C2C(O)CCN2c2nc(C)cc(C(F)(F)F)c2C#N)c1
1
CNCc1ccc(-c2[nH]c3cc(F)cc4c3c2CCNC4=O)cc1 + Nc1ccc(C#CCN(C(=O)Cc2ncc(C(F)(F)F)cc2C(F)(F)F)c2ccc(F)cc2)nn1
-1
CCCS(=O)(=O)Nc1ccc(F)c(C(=O)c2c[nH]c3ncc(-c4ccc(Cl)cc4)cc23)c1F + COC1C(OC(N)=O)C(O)C(Oc2ccc3c(O)c(NC(=O)c4ccc(O)c(CC=C(C)C)c4)c(=O)oc3c2C)OC1(C)C
-1
COc1ccc([C@@H](O)c2cc(-c3ncnc4cc(N5CCOCC5)ccc34)c(F)cc2Cl)nn1 + COC1C(OC(N)=O)C(O)C(Oc2ccc3c(O)c(NC(=O)c4ccc(O)c(CC=C(C)C)c4)c(=O)oc3c2C)OC1(C)C
1
COc1cc2cc(C(=O)CCC(=O)O)sc2cc1OC + Nc1ccc(C#CCN(C(=O)Cc2ncc(C(F)(F)F)cc2C(F)(F)F)c2ccc(F)cc2)nn1
-1
CCc1cc2c(N3CCc4c(cc(Cn5ccnc5)cc4-c4cn(C)nc4C(F)(F)F)C3=O)cc(C)nc2c(OC)n1 + COC1C(OC(N)=O)C(O)C(Oc2ccc3c(O)c(NC(=O)c4ccc(O)c(CC=C(C)C)c4)c(=O)oc3c2C)OC1(C)C
-1
CC(C)n1c(=O)n(C)c2cnc3cc(F)c(-c4ccc(OCCCN5CCCCC5)nc4)cc3c21 + Nc1ccc(C#CCN(C(=O)Cc2ncc(C(F)(F)F)cc2C(F)(F)F)c2ccc(F)cc2)nn1
-1
Nc1ccn(C2OC(CO)C(O)C2(F)F)c(=O)n1 (configuration not stated) + Cc1cccc(N(C)C(=O)C2C(O)CCN2c2nc(C)cc(C(F)(F)F)c2C#N)c1
-1

Below: the item to evaluate.
Query: What was the test verdict on CC1COCCN1c1cc(C2(O)CC3CCC(C2)O3)c2cnn(-c3ccn[nH]3)c2n1 (configuration not stated) + Cc1cccc(N(C)C(=O)C2C(O)CCN2c2nc(C)cc(C(F)(F)F)c2C#N)c1 ?
Response: 1

###

Listed here: items and their measured viability, T/C.
System: 926638-142-R-J1-PDC complex spheroid viability
Experiment: Anticancer human tumor 926638-142-R-J1-PDC cell line growth inhibition [POLQ];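 note: spheroids exposed to drugs for one week before readout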;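 for viability, T/C: percent viability relative to DMSO vehicle control wells set as 100%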
Conditions: second compound 0.0316 µM; first compound 1 µM; stronger effect = lower value
Description: Multicellular complex tumor spheroid response to Polymerase (POL) inhibitors (novobiocin, ART-558, RP6685) in combination with a variety of drugs and investigational agents in selected tumor cell lines The POL inhibitors (novobiocin, ART-558, and RP6685) were evaluated both individually and in combination with standard of care and investigational anticancer small molecules within a complex spheroid model of solid tumors. . […]
// units = %; emit number, no label

O=C(c1cc(Cc2n[nH]c(=O)c3ccccc23)ccc1F)N1CCN(C(=O)C2CC2)CC1 + Cc1cccc(N(C)C(=O)C2C(O)CCN2c2nc(C)cc(C(F)(F)F)c2C#N)c1
87.2
COc1cccc(OCCCN)c1-c1cc(Nc2cnc(C#N)cn2)n[nH]1 + COC1C(OC(N)=O)C(O)C(Oc2ccc3c(O)c(NC(=O)c4ccc(O)c(CC=C(C)C)c4)c(=O)oc3c2C)OC1(C)C
24.8
CCc1cc2c(N3CCc4c(cc(Cn5ccnc5)cc4-c4cn(C)nc4C(F)(F)F)C3=O)ccnc2c(OC)n1 + Cc1cccc(N(C)C(=O)C2C(O)CCN2c2nc(C)cc(C(F)(F)F)c2C#N)c1
44.8

Moving on to another molecule below.
Query: Read the entry CC1COCCN1c1cc(-c2ccnn2C)c2ccnc(-c3ccn[nH]3)c2n1 (configuration not stated) + Cc1cccc(N(C)C(=O)C2C(O)CCN2c2nc(C)cc(C(F)(F)F)c2C#N)c1 and write its reported viability, T/C.
Response: 27.5

###

system: 926638-142-R-J1-PDC complex spheroid viability; test: Anticancer human tumor 926638-142-R-J1-PDC cell line growth inhibition [POLQ]; details: curve of first compound; second compound 0.1 µM;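 note: spheroids exposed to drugs for one week before readout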
Quantity name: IC50

Worked examples, 5 compounds total:
C#Cc1c(F)ccc2cc(O)cc(-c3ncc4c(N5CC6CCC(C5)N6)nc(OCC56CCCN5CC(F)C6)nc4c3F)c12 (configuration not stated) + Cc1cccc(N(C)C(=O)C2C(O)CCN2c2nc(C)cc(C(F)(F)F)c2C#N)c1
> 10 µM
COc1cc(C2c3cc4c(cc3C(OC3OC5COC(C)OC5C(O)C3O)C3COC(=O)C23)OCO4)cc(OC)c1O (configuration not stated) + Cc1cccc(N(C)C(=O)C2C(O)CCN2c2nc(C)cc(C(F)(F)F)c2C#N)c1
> 10 µM
CC(C)n1c(=O)n(C)c2cnc3cc(F)c(-c4ccc(OCCCN5CCCCC5)nc4)cc3c21 + Cc1cccc(N(C)C(=O)C2C(O)CCN2c2nc(C)cc(C(F)(F)F)c2C#N)c1
> 10 µM
O=C(c1cc(Cc2n[nH]c(=O)c3ccccc23)ccc1F)N1CCN(C(=O)C2CC2)CC1 + Nc1ccc(C#CCN(C(=O)Cc2ncc(C(F)(F)F)cc2C(F)(F)F)c2ccc(F)cc2)nn1
> 10 µM
CNCc1ccc(-c2[nH]c3cc(F)cc4c3c2CCNC4=O)cc1 + Nc1ccc(C#CCN(C(=O)Cc2ncc(C(F)(F)F)cc2C(F)(F)F)c2ccc(F)cc2)nn1
> 10 µM

Query: Provide only the value of recorded IC50 for CC[C@@]1(O)C(=O)OCc2c1cc1n(c2=O)Cc2cc3c(CN(C)C)c(O)ccc3nc2-1 + Nc1ccc(C#CCN(C(=O)Cc2ncc(C(F)(F)F)cc2C(F)(F)F)c2ccc(F)cc2)nn1
Response: > 0.1 µM

Query: Answer with reported IC50 of CNCc1ccc(-c2[nH]c3cc(F)cc4c3c2CCNC4=O)cc1 + Cc1cccc(N(C)C(=O)C2C(O)CCN2c2nc(C)cc(C(F)(F)F)c2C#N)c1
Response: > 10 µM
